All figures here come from a melting point compilation (Tetko et al.; mined from patent text by program, amines drawn as free bases though some values may be those of a salt).

In this section we review reported melting point values for a set of molecules.

Guide cases for melting point, answers given:
COC(=O)COc1cccc2c(CCN=[N+]=[N-])c(C)oc12
88 to 90 °C
CC1(C)[C@H]2CC=C(CCOCC(=O)O)[C@@H]1C2
78 to 80 °C
CN(C)CCSc1ncccc1C(O)c1ccccc1 (stereo not given)
88 to 89 °C
Cc1cc(C)n2nc(S(=O)(=O)N(C)c3c(Cl)cccc3Cl)nc2n1
220 to 222 °C

The record that follows has no melting point shown yet.
Task: Supply recorded melting point for O=C(O)COc1c(-c2cccc(Cl)c2)cc(C(=O)NCCCCc2ccccc2)cc1-c1cccc(C(F)(F)F)c1 here.
Output: 187 to 190 °C
